# TEST_PROTOCOL: in vitro
# CONDITION_LABEL: 16 h, 10 μM
VALUE_TYPE: PAMPA, mean (LogPe, cm/s)

Worked examples follow.
Cc1ncsc1-c1ccc(CNC(=O)[C@@H]2C[C@@H](O)CN2C(=O)[C@@H](NC(=O)Cc2ccc(OCCOc3cnc4c(C5CCN(C(=O)c6ccc(OC(F)(F)F)cc6)CC5)ncnc4c3)cc2)C(C)(C)C)cc1 [PROTAC 5]; <-7,56 cm/s
Cc1ncsc1-c1ccc(CNC(=O)[C@@H]2C[C@@H](O)CN2C(=O)[C@@H](NC(=O)CCCCCCCCOc2cnc3c(C4CCN(C(=O)c5ccc(OC(F)(F)F)cc5)CC4)ncnc3c2)C(C)(C)C)cc1 [PROTAC 1]; -8,29 cm/s
Cc1ncsc1-c1ccc(CNC(=O)[C@@H]2C[C@@H](O)CN2C(=O)[C@@H](NC(=O)CCOCCOCCOc2cnc3c(C4CCN(C(=O)c5ccc(OC(F)(F)F)cc5)CC4)ncnc3c2)C(C)(C)C)cc1 [PROTAC 2]; -5,42 cm/s

Consider Cc1ncsc1-c1ccc(CNC(=O)[C@@H]2C[C@@H](O)CN2C(=O)[C@@H](NC(=O)COCCOCCNC(=O)COc2cnc3c(C4CCN(C(=O)c5ccc(OC(F)(F)F)cc5)CC4)ncnc3c2)C(C)(C)C)cc1 [PROTAC 9] . Its measured PAMPA, mean (LogPe, cm/s) is -6,3 cm/s

Consider Cc1ncsc1-c1ccc(CNC(=O)[C@@H]2C[C@@H](O)CN2C(=O)[C@@H](NC(=O)Cc2ccc(OCCOc3cnc4c(C5CCN(C(=O)c6ccc(OC(F)(F)F)cc6)CC5)ncnc4c3)cn2)C(C)(C)C)cc1 [PROTAC 6] . Its measured PAMPA, mean (LogPe, cm/s) is -7,28 cm/s
